Tested on: MOLT-4 leukemia
Experiment: NCI tumour cell line growth inhibition, 48 h
Mark 0 for TGI values under 40 µM, and 1 for everything at or above.

Before answering, review these 5 worked examples.
[
  {
    "molecule": "CC(C)N(C(=O)C12C3C4C1C1C2C3C41C(=O)O)C(C)C (stereo not drawn)",
    "class-name": 1
  },
  {
    "molecule": "CCOC(=O)Cc1csc(NC(=O)COC(=O)c2ccc(N)cc2)n1",
    "class-name": 1
  },
  {
    "molecule": "CCOP(=S)(OCC)Oc1ccc2c(c1)OC(=O)C1(Cl)C2(C)C2(Cl)C(=O)Oc3cc(OP(=S)(OCC)OCC)ccc3C12C (stereo not drawn)",
    "class-name": 1
  },
  {
    "molecule": "CCC(O)CC1OC2(CCC1C)CC1OC(=O)/C=C\\C(C)(O)C(O)C(C)C(O)C(OC3CC(OC)C(O)C(C)O3)C(O)C(C)(O)CCC/C=C/C3CC(C)COC3(O)CC(O2)C1C (stereo not drawn)",
    "class-name": 0
  },
  {
    "molecule": "COc1cc(C)c2c(c1C=O)Oc1c(c(C)c(O)c3c1C(O)OC3=O)OC2=O (stereo not drawn)",
    "class-name": 1
  }
]

INPUT: Quick check: does C/C(=N\NC(=S)Nc1ccccc1)c1nc2ncccc2[nH]1 have TGI greater than or equal to 40 µM?
OUTPUT: 0

INPUT: Quick check: does CC(=O)[CH-]C(=O)c1ccccc1.CC(=O)[CH-]C(=O)c1ccccc1.CCN(CC)CC[O-].CCN(CC)CC[O-].Cl.[Hf+4] have TGI greater than or equal to 40 µM?
OUTPUT: 1

INPUT: Quick check: does COc1cc(N2C(=O)C(=O)C3(CCCCC3)C2=O)cc(OC)c1OC have TGI greater than or equal to 40 µM?
OUTPUT: 1

INPUT: Quick check: does CCOC(=O)C1C(c2ccccc2)=C(c2ccccc2)C(c2ccccc2)=C1c1ccccc1 have TGI greater than or equal to 40 µM?
OUTPUT: 1

INPUT: Quick check: does Cc1ccc(/C(=N/NS(=O)(=O)c2ccc([N+](=O)[O-])cc2)Sc2cc(Cl)c(C)cc2S(N)(=O)=O)cc1 have TGI greater than or equal to 40 µM?
OUTPUT: 1

INPUT: Quick check: does CC1=C(C(=O)Nc2ccc([N+](=O)[O-])cc2)C(c2cccc([N+](=O)[O-])c2)C(C(=O)Nc2ccc([N+](=O)[O-])cc2)=C(C)N1 have TGI greater than or equal to 40 µM?
OUTPUT: 1

INPUT: Quick check: does COc1ccc(-c2csc(-n3c(-c4ccccc4)nc4c(Br)cc(Br)cc4c3=O)n2)cc1 have TGI greater than or equal to 40 µM?
OUTPUT: 1

* * *

System: NCI-H522 lung
Assay: NCI tumour cell line growth inhibition, 48 h
Quick list: TGI per entry.
Write the value in µM as a bare number.

// below: answered compounds
[
  {
    "molecule-smiles": "COC1=CC(=O)c2c(ccc3ncnc(N)c23)C1=O",
    "TGI, µM": 5.62
  },
  {
    "molecule-smiles": "CCNCCCn1c2c(c3ccc(F)cc3c1=O)C(=O)c1cc(OC)cnc1-2",
    "TGI, µM": 1.02
  },
  {
    "molecule-smiles": "O=C(c1ccc(Cl)cc1Cl)N(/N=C/C=C/c1ccccc1)c1nnc(-c2ccccc2)c(-c2ccccc2)n1",
    "TGI, µM": 82.5
  }
]

Query C[n+]1c2ccccc2n2c3ccccc3c(NCCCN3CCOCC3)c(C#N)c21 yields TGI of 2.25
